tgt: MMP-2 (Homo sapiens, UniProt P08253)
Construct: made in house; provided by Dr. Gregory Goldberg, Washington University
Sequence (P08253 110-660): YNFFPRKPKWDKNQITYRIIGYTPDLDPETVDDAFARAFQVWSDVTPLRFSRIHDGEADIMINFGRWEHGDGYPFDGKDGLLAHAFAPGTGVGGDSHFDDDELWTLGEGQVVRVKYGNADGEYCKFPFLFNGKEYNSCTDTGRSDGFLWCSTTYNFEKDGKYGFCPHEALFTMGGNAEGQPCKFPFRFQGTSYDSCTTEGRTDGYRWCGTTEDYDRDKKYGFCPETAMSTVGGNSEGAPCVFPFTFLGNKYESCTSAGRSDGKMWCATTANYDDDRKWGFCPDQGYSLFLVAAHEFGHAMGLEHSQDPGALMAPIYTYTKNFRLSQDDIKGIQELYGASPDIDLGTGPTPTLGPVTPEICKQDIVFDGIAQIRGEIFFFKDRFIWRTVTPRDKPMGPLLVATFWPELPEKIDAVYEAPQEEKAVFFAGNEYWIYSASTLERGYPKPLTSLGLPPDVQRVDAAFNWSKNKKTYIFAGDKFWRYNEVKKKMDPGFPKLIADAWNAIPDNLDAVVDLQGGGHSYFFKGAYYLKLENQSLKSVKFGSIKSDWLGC
experimentSummary: biochemical
measurementSetup: recombinant human MMP-2, MCA peptide substrate 4 μM, pH 7.5, room temperature; read-out: MMP-2 IC50
pIC50: −log10 of the molar value.
measuredQuantity: pIC50

Completed entries (count: 2):
- compound: "O=C(NO)C1(S(=O)(=O)c2ccc(N3CCC(OCc4ccc(Br)cc4)CC3)cc2)CCOCC1"
  pIC50: 7.00
- compound: "O=C(NO)C1(S(=O)(=O)c2ccc(N3CCN(CCO)CC3)cc2)CCOCC1"
  pIC50: 5.85

a. N#Cc1cc(F)cc(OC2CCN(c3ccc(S(=O)(=O)C4(C(=O)NO)CCOCC4)cc3)CC2)c1
b. CCOC(=O)CN1CCN(c2ccc(S(=O)(=O)C3(C(=O)NO)CCOCC3)cc2)CC1
c. O=C(CS(=O)(=O)c1ccc(Oc2ccncc2)cc1)NO
d. COc1ccccc1COC1CCC(Oc2ccc(S(=O)(=O)C3(C(=O)NO)CCOCC3)cc2)C1 (centres unmarked) [Example 741]
IN: Order by pIC50, ascending. Order the labels as requested and give them as your answer.
OUT: b, a, d, c

###

tgt: MMP-13 (Homo sapiens)
Construct: made in house; host or cells: baculovirus / insect cells
experimentSummary: biochemical
measurementSetup: recombinant human MMP-13, MCA peptide substrate 4 μM, pH 7.5, room temperature; read-out: MMP-13 IC50
measuredQuantity: IC50 (nM)

// known answers, use as guide
- compound: "O=C(NO)C1(S(=O)(=O)c2ccc(N3CCC(Oc4ccccc4C(F)(F)F)CC3)cc2)CCOCC1"
  unitsSymbol: "nM"
  IC50: 120
- compound: "Cc1ccc(COC2CCN(c3ccc(S(=O)(=O)C4(C(=O)NO)CCOCC4)cc3)CC2)cc1"
  unitsSymbol: "nM"
  IC50: 3.8
- compound: "CN(C)c1cccc(NC(=O)C2CCN(c3ccc(S(=O)(=O)C4(C(=O)NO)CCOCC4)cc3)CC2)c1"
  unitsSymbol: "nM"
  IC50: 75
- compound: "C=C(C)CC(=O)C1CCN(c2ccc(S(=O)(=O)C3(C(=O)NO)CCOCC3)cc2)CC1"
  unitsSymbol: "nM"
  IC50: 3
- compound: "CC1CN(c2ccc(S(=O)(=O)C3(C(=O)NO)CCOCC3)cc2)CCN1c1ccccc1 (centres unmarked)"
  unitsSymbol: "nM"
  IC50: 140

1. O=C(NO)C1(S(=O)(=O)c2ccc(N3CCC(Oc4cc(F)cc(F)c4)CC3)cc2)CCOCC1
2. O=C(NO)C1(S(=O)(=O)c2ccc(N3CC[C@@H](COCc4ccc(OC(F)(F)F)cc4)C3)cc2)CCOCC1
3. N#Cc1ccc(OC2CCN(c3ccc(S(=O)(=O)C4(C(=O)NO)CCOCC4)cc3)CC2)cc1
IN: Order the records so the highest IC50 appears first and the lowest last. Your answer should be the labels, listed in the requested order.
OUT: 2, 1, 3

A. O=C(NO)C1(S(=O)(=O)c2ccc(N3CCC(OCc4cccc(F)c4)CC3)cc2)CCOCC1
B. O=C(CCCCN1CCCC1)N1CCC(C(=O)NO)(S(=O)(=O)c2ccc(Oc3ccc(C(F)(F)F)cc3)cc2)CC1
C. C/C=C/CC(=O)C1CCN(c2ccc(S(=O)(=O)C3(C(=O)NO)CCOCC3)cc2)CC1
IN: Exam item: list the entries in increasing order of IC50. Please respond by ranking the labels in the order requested.
OUT: B, C, A
(B: 0.6 nM, C: 5 nM, A: 10.7 nM)
